Quick record: IC50, B-RAF normal type (Homo sapiens (Human)).
Record the value in nM, omitting the unit from your answer.

COMPOUND STRUCTURE STRING: Cc1ccc2c(Nc3ccc(OC(F)F)cc3)nccc2c1NC(=O)c1csc2c(N)ncnc12
UNIT INFO: nM
MEAS VALUE: 128

Field: next compound
Ask: Report IC50 for COc1ccc(Nc2nccc3c(NC(=O)c4csc5c(N)ncnc45)c(C)ccc23)cc1 tested on B-RAF normal type (Homo sapiens (Human)).
Sequence (P15056 whole entry): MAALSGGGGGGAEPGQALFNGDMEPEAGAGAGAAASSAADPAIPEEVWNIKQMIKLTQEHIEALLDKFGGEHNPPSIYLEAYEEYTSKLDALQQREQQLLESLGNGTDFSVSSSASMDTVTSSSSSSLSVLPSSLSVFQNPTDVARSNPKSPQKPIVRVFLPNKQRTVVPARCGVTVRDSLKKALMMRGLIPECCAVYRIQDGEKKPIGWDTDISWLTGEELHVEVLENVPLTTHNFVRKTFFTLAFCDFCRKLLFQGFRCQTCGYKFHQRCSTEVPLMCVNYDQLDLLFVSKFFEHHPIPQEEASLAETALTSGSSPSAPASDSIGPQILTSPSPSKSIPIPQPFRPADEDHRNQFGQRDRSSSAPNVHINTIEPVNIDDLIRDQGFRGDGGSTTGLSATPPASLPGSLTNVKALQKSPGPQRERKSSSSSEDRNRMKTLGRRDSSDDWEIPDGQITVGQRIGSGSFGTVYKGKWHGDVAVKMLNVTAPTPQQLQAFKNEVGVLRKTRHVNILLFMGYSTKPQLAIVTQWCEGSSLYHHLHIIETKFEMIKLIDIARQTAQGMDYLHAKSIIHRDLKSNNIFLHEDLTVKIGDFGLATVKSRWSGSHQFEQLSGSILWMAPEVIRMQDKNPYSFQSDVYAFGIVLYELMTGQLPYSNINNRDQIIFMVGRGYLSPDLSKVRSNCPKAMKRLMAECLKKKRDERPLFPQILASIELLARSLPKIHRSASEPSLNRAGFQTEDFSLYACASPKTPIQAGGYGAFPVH
Result: 15

----------
- SYSTEM NAME: RAF1 Y340D Y341D (C-RAF) (Homo sapiens (Human), UniProt P04049, Y340D/Y341D)
- Sequence (P04049 whole entry Y340D/Y341D): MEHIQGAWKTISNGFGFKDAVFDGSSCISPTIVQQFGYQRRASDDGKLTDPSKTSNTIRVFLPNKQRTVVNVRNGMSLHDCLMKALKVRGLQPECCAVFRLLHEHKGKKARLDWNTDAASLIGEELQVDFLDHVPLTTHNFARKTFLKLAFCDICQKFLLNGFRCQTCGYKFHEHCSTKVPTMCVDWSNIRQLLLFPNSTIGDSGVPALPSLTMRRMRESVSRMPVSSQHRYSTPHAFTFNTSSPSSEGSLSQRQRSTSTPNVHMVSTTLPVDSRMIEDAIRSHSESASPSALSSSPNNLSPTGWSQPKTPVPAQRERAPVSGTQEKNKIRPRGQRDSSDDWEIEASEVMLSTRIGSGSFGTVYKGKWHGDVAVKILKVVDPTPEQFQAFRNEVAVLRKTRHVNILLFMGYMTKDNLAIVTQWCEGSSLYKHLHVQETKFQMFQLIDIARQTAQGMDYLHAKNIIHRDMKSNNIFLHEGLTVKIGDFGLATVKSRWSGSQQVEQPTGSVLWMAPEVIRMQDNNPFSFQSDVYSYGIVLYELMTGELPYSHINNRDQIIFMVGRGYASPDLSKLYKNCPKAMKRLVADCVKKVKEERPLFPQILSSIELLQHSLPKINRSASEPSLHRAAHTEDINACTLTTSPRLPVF
- TEST PROTOCOL: RAF kinase activity, Kinase Profiling Service (Invitrogen)
- Assay type: biochemical
pIC50: −log10 of the molar value.
Could you label it y if measured pIC50 is 8 or higher, and n otherwise?

Consider the following illustrative entries.
COMPOUND STRUCTURE STRING: Cc1ccc2c(Nc3ccc(OC(F)F)cc3)nccc2c1NC(=O)c1csc2c(N)ncnc12
DISCRETE LABEL: n
//
COMPOUND STRUCTURE STRING: COc1ccc(Nc2nccc3c(NC(=O)c4csc5c(N)ncnc45)c(C)ccc23)cc1
DISCRETE LABEL: y
//
COMPOUND STRUCTURE STRING: Cc1ccc2c(Nc3cccc(Cl)c3F)nccc2c1NC(=O)c1csc2c(N)ncnc12
DISCRETE LABEL: y

Here's the next entry for you.
Ask: I'd appreciate it if you could say whether Cc1ccc2c(Nc3ccc(Cl)cc3)nccc2c1NC(=O)c1csc2c(N)ncnc12 has pIC50 at least equal to 8.
Result: n

----------
- SYSTEM NAME: FMS (Homo sapiens (Human), UniProt P07333)
- Sequence (P07333 20-972): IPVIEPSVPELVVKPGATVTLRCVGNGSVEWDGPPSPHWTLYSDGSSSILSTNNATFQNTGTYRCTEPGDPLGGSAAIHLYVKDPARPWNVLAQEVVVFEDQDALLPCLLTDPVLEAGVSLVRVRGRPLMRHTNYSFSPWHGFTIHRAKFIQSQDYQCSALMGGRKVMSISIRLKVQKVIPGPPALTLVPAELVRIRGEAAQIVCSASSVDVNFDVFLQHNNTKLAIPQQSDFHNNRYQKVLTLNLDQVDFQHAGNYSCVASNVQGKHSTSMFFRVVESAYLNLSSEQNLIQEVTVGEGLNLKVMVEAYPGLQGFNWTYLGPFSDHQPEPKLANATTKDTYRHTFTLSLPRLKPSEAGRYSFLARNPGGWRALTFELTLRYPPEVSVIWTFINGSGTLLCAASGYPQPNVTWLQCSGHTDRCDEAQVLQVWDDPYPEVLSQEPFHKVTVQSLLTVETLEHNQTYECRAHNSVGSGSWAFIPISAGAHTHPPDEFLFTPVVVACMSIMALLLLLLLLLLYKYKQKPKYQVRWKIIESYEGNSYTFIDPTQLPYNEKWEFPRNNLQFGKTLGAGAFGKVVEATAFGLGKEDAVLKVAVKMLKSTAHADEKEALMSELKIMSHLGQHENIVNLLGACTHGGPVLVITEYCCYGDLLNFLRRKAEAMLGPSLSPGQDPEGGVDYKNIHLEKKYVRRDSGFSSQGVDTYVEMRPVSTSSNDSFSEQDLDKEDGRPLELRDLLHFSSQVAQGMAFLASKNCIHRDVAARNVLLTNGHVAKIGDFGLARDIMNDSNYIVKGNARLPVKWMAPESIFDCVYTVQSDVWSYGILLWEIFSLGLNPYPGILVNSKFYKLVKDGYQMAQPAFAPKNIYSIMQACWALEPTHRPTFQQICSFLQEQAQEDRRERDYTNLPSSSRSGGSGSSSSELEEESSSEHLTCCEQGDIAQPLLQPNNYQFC
EXPERIMENTAL READOUT: IC50

Ask: // lookup IC50 | system=FMS (Homo sapiens (Human), UniProt P07333) | key= CCCS(=O)(=O)Nc1ccc(F)c(C(=O)c2c[nH]c3ncc(-c4ccc(Cl)cc4)cc23)c1F [Control, Vemurafenib, reference compound]
Result: > 1000 nM

----------
- Tested on: HepG2 cells (N-RAS mutant hepatoma carcinoma cell)
- TEST PROTOCOL: Inhibition on cell growth of N-RAS mutant cell HepG2 (SRB)
- Assay type: cell-based
- CONDITION: Homo sapiens, 72 hours, SRB staining, described as GI50 in the method
- Procedure: N-RAS mutant cells HepG2 cells (HCC) cell lines (ATCC # HB-8065™), were obtained from ATCC (American Type Culture Collection: Rockville, Md.). […] To evaluate cell viabilities, HepG2 cell lines were fixed with 10% TCA (trichloroacetic acid), stained with SRB (sulfohodamine B), and an absorbance was measured at 540 nm. […] The growth rates of cancer cells were calculated by Equation 1 or 2. […]
EXPERIMENTAL READOUT: pIC50
Bear in mind: pIC50 is minus log10 of a mol/L concentration; give just that figure.

The examples below pair each entry with its known result.
COMPOUND: COc1ccc(Nc2nccc3c(NC(=O)c4csc5c(N)ncnc45)c(C)ccc23)cc1 [Example 16]
MEAS VALUE: 7.62

COMPOUND: Cc1ccc2c(Nc3ccc(OC(F)F)cc3)nccc2c1NC(=O)c1csc2c(N)ncnc12 [Example 50]
MEAS VALUE: 7.36

COMPOUND: Cc1ccc2c(Nc3cccc(Cl)c3)nccc2c1NC(=O)c1csc2c(N)ncnc12 [Example 38]
MEAS VALUE: 7.39

COMPOUND: Cc1ccc2c(Nc3ccc(Cl)cc3)nccc2c1NC(=O)c1csc2c(N)ncnc12 [Example 1]
MEAS VALUE: 7.57

COMPOUND: Cc1ccc2c(Nc3cccc(Cl)c3F)nccc2c1NC(=O)c1csc2c(N)ncnc12 [Example 116]
MEAS VALUE: 7.42

Ask: Please give the measured pIC50 for this compound: Cc1ccc2c(Nc3ccc(F)c(Cl)c3)nccc2c1NC(=O)c1csc2c(N)ncnc12 [Example 105]
Result: 7.05

Ask: Please give the measured pIC50 for this compound: Cc1ccc2c(Nc3ccc(Cl)c(CN(C)C)c3)nccc2c1NC(=O)c1csc2c(N)ncnc12 [Example 59]
Result: 7.33

Ask: # input compound: CC(=O)c1ccc(Nc2nccc3c(NC(=O)c4csc5c(N)ncnc45)c(C)ccc23)cc1 [Example 83] ; wanted: its pIC50
Result: 7.52

----------
In this section we review reported IC50 values for a set of molecules.
- System: SK-Mel-2 cells (N-RAS mutant melanoma)
- TEST PROTOCOL: Inhibition on cell growth of N-RAS mutant cell SK-Mel-2 (SRB)
- Type: cell-based
- CONDITION: Homo sapiens, 72 hours, SRB staining, described as GI50 in the method
- Procedure: N-RAS mutant cells, SK-Mel-2 cell lines (ATCC #HTB-68™), were obtained from ATCC (American Type Culture Collection: Rockville, Md.). […] To evaluate cell viabilities, SK-Mel-2 cell lines were fixed with 10% TCA (trichloroacetic acid), stained with SRB (sulfohodamine B), and an absorbance was measured at 540 nm. […] The growth rates of cancer cells were calculated by Equation 1 or 2. […]
Dear colleague, please return just the value in nM, with no unit written.

MOLECULE: Cc1ccc2c(Nc3ccc(F)c(Cl)c3)nccc2c1NC(=O)c1csc2c(N)ncnc12 [Example 105]
IC50 / nM: 210

Ask: Sample Cc1ccc2c(Nc3ccc(Cl)cc3)nccc2c1NC(=O)c1csc2c(N)ncnc12 [Example 1] — what was its IC50?
Result: 56

Ask: Data request, read-out IC50, for COc1ccc(Nc2nccc3c(NC(=O)c4csc5c(N)ncnc45)c(C)ccc23)cc1 [Example 16]
Result: 52

Ask: IC50 for Cc1ccc2c(Nc3ccc(OC(F)F)cc3)nccc2c1NC(=O)c1csc2c(N)ncnc12 [Example 50] ?
Result: 163

Ask: Quick one: IC50 for CC(=O)c1ccc(Nc2nccc3c(NC(=O)c4csc5c(N)ncnc45)c(C)ccc23)cc1 [Example 83] ?
Result: 60

Ask: Field request: IC50 | item: Cc1ccc2c(Nc3cccc(Cl)c3F)nccc2c1NC(=O)c1csc2c(N)ncnc12 [Example 116]
Result: 76

Ask: Consider the molecule shown here: Cc1ccc2c(Nc3ccc(Cl)c(CN(C)C)c3)nccc2c1NC(=O)c1csc2c(N)ncnc12 [Example 59] What is its recorded IC50?
Result: 236

Ask: Consider the molecule Cc1ccc2c(Nc3cccc(Cl)c3)nccc2c1NC(=O)c1csc2c(N)ncnc12 [Example 38] and give its measured IC50.
Result: 97

----------
Target or system DDR2 (Homo sapiens (Human)): recorded IC50 listed per item.
Please give a number only; it is taken to be in µM.

Reference set (2 entries):
COMPOUND STRUCTURE STRING: Cc1ccc2c(Nc3cccc(Cl)c3F)nccc2c1NC(=O)c1csc2c(N)ncnc12
UNIT INFO: µM
IC50: 0.044

COMPOUND STRUCTURE STRING: Cc1ccc2c(Nc3ccc(F)c(Cl)c3)nccc2c1NC(=O)c1csc2c(N)ncnc12
UNIT INFO: µM
IC50: 0.181

Note: attention shifts to another entry.
Ask: Which measured IC50 value corresponds to Cc1ccc2c(Nc3ccc(Cl)cc3)nccc2c1NC(=O)c1csc2c(N)ncnc12 ?
Result: 0.005

----------
- SYSTEM NAME: DDR1 (Homo sapiens (Human), UniProt Q08345)
- Sequence (Q08345 19-913): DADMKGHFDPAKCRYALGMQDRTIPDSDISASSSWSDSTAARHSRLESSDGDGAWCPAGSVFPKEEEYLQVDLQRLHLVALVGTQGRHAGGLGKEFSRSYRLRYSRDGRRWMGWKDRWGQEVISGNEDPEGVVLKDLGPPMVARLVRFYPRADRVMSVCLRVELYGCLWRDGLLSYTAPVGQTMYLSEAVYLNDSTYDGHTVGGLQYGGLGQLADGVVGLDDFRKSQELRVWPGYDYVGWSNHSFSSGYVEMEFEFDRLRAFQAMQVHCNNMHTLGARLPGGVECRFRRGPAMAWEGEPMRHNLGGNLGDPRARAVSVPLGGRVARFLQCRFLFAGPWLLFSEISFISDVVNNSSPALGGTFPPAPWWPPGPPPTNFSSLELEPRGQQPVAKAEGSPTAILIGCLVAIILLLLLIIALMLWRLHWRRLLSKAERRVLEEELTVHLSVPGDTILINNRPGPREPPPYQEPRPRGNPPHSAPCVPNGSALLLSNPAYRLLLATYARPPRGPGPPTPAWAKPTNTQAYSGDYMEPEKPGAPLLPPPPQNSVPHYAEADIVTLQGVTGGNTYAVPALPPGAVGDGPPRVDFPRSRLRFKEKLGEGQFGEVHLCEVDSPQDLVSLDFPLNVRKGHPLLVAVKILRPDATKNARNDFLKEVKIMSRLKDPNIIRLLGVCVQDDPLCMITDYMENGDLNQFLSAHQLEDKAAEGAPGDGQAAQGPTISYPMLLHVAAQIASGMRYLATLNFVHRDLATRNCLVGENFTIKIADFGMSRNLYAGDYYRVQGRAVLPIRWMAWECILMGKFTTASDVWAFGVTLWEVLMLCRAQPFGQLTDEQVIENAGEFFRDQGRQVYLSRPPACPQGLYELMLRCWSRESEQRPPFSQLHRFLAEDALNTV
EXPERIMENTAL READOUT: pIC50
Just so you know, pIC50 here is -log10 of the concentration in molar units; reply with that number alone.

Please review the following examples before continuing.
MOLECULE: CC(=O)c1ccc(Nc2nccc3c(NC(=O)c4csc5c(N)ncnc45)c(C)ccc23)cc1 [Example 83]
SYSTEM NAME: DDR1 (Homo sapiens (Human), UniProt Q08345)
pIC50: 8.30

MOLECULE: Cc1ccc2c(Nc3ccc(F)c(Cl)c3)nccc2c1NC(=O)c1csc2c(N)ncnc12 [Example 105]
SYSTEM NAME: DDR1 (Homo sapiens (Human), UniProt Q08345)
pIC50: 7.15

Ask: // pIC50 lookup, key: Cc1ccc2c(Nc3ccc(Cl)cc3)nccc2c1NC(=O)c1csc2c(N)ncnc12 [Example 1]
Result: 8.70

----------
- SYSTEM NAME: RAF1 Y340D Y341D (C-RAF) (Homo sapiens (Human), UniProt P04049, Y340D/Y341D)
- TEST PROTOCOL: RAF kinase activity, Kinase Profiling Service (Invitrogen)
List of pIC50 values.
Please report pIC50 as the negative decimal logarithm of the molar concentration, giving only the number.

// known answers, use as guide
COMPOUND STRUCTURE STRING: CC(=O)c1ccc(Nc2nccc3c(NC(=O)c4csc5c(N)ncnc45)c(C)ccc23)cc1
MEAS VALUE: 8.15
--
COMPOUND STRUCTURE STRING: Cc1ccc2c(Nc3ccc(Cl)c(CN(C)C)c3)nccc2c1NC(=O)c1csc2c(N)ncnc12
MEAS VALUE: 8.22

Ask: Request - read-out pIC50 | tested on RAF1 Y340D Y341D (C-RAF) (Homo sapiens (Human), UniProt P04049, Y340D/Y341D) | compound Cc1ccc2c(Nc3ccc(F)c(Cl)c3)nccc2c1NC(=O)c1csc2c(N)ncnc12
Result: 7.82
